What pIC50 was measured for each of the following?
Biological target: H1047R PIK3CA enzyme (Homo sapiens, UniProt P42336, H1047R)
Sequence (P42336 whole entry H1047R): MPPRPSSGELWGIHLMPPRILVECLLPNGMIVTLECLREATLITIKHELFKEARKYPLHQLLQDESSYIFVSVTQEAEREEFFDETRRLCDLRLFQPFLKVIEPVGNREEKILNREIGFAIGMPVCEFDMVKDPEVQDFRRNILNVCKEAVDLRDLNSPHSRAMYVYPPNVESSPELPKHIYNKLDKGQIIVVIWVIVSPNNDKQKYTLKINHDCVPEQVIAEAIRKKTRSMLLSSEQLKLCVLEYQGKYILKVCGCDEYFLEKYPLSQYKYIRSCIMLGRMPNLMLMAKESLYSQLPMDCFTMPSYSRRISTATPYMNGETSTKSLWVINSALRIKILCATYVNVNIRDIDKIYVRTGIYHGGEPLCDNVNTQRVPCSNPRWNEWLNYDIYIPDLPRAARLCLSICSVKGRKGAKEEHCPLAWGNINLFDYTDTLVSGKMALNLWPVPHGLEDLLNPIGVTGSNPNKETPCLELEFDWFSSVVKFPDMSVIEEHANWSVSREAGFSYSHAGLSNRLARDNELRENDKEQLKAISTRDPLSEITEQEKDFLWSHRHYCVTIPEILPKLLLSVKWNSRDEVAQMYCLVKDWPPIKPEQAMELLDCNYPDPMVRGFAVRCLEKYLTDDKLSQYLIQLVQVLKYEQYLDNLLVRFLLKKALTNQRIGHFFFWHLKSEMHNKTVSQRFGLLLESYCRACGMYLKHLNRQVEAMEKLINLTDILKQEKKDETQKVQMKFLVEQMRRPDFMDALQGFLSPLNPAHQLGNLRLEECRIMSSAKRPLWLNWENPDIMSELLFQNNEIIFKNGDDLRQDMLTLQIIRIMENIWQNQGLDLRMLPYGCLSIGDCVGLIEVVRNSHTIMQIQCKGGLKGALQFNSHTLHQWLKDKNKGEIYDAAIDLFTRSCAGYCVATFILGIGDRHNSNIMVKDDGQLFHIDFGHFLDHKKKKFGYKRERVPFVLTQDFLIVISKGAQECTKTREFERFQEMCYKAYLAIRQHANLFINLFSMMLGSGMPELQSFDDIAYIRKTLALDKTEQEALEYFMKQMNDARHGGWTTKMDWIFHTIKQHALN
Sequence (P27986 whole entry partner): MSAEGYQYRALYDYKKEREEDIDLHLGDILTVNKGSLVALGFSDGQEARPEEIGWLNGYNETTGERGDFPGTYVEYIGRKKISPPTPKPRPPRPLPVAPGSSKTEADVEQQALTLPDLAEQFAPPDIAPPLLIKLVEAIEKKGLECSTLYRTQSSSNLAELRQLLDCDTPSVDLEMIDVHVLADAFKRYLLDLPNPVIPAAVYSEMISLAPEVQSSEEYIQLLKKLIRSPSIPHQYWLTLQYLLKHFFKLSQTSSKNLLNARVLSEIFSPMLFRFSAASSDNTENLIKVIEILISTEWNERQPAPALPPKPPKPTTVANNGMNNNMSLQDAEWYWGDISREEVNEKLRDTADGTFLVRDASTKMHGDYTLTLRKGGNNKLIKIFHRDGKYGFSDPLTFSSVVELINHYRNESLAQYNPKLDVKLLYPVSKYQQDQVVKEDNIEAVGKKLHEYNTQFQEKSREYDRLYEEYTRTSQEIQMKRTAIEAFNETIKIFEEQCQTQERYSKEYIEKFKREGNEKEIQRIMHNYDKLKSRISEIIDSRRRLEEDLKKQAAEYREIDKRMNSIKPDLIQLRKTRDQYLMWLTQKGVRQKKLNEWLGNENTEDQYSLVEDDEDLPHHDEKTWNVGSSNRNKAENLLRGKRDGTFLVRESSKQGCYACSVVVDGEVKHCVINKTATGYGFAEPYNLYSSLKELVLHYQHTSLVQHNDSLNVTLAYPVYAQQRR
Test: ADP-Glo Biochemical PIK3CA Kinase Assay
pIC50: −log10 of the molar value.

compound: Cn1cc2c(C(=O)Nc3cccc4c3C(c3cc(F)ccc3Cl)NC4=O)cc(F)cc2n1 (stereo not shown) [Compound I-870]
subject_of_test: H1047R PIK3CA enzyme (Homo sapiens, UniProt P42336, H1047R)
value_measured: 4.00 to 5.00

For every item in the list below, what is its measured pIC50?
1. [2H]C1([2H])N(C(=O)Nc2cccc3c2[C@H](c2cc(F)ccc2Cl)NC3=O)c2ccc(F)cc2[C@]1(O)C(F)(F)F (single isomer, unassigned) [Compound I-2595]
2. O=C(Nc1cc(-c2cncnc2)cc2c1[C@H](c1cc(F)ccc1Cl)NC2=O)c1cc(F)cc(C(F)(F)F)c1 [Compound I-1095]
3. CS(=O)(=O)Cc1cc(NC(=O)c2cc(F)cc(Cl)c2)c2c(c1)C(=O)NC2c1cc(F)ccc1Cl (stereo not shown) [Compound I-231]
4. O=C1NC(c2cc(F)ccc2Cl)c2c(NC(=O)c3noc4c3CCCC4)cccc21 (stereo not shown) [Compound I-2238]
5. O=C(Nc1cc(OC2CCCOC2)cc2c1C(c1cc(F)ccc1Cl)NC2=O)c1cc(F)cc(C(F)(F)F)c1 (racemic) [Compound I-1239]
6. Cn1cc(-c2cc(NC(=O)c3cc(F)cc(C(F)(F)F)c3)c3c(c2)C(=O)NC3c2cc(F)ccc2Cl)cn1 (stereo not shown) [Compound I-811]
7. Cc1c(-c2cc(NC(=O)c3cc(F)cc(Cl)c3)c3c(n2)C(=O)NC3c2cc(F)ccc2Cl)cnn1C (stereo not shown) [Compound I-381]
8. N#CCc1ccc(NC(=O)N2C[C@@](O)(C(F)(F)F)c3cc(F)ccc32)c2c1C(=O)N[C@H]2c1cc(F)ccc1Cl (single isomer, unassigned) [Compound I-2616]

A:
≥ 7.00
≥ 7.00
≥ 7.00
5.00 to 6.00
≥ 7.00
≥ 7.00
6.30 to 7.00
5.00 to 6.00

For every item in the list below, what is its measured pIC50?
1. N#CC1CC(Oc2cc(NC(=O)c3cc(F)cc(C(F)(F)F)c3)c3c(c2)C(=O)NC3c2cc(F)ccc2Cl)C1 (stereo not shown) [Compound I-1129]
2. Cc1ccccc1C1NC(=O)c2cccc(-c3cc4c(F)cc(F)cc4[nH]3)c21 (stereo not shown) [Compound I-479]
3. N#Cc1ccc(-c2cc(NC(=O)c3cc(F)cc(C(F)(F)F)c3)c3c(c2)C(=O)N[C@H]3c2cc(F)ccc2Cl)cn1 [Compound I-996]
4. O=C(Nc1cc(NC(=O)c2cc(F)cc(C(F)(F)F)c2)c2c(c1)C(=O)N[C@@H]2c1cc(F)ccc1Cl)c1cccnc1 (racemic) [Compound I-1478]

A:
≥ 7.00
5.00 to 6.00
6.00 to 6.30
6.30 to 7.00
